# System: BRD4 BD1 Y97F
# particulars: read-out: EC50 (protein stabilization)
pEC50: −log10 of the molar value.
readout_label: pEC50

[in] Item under review: `Cc1sc2c(c1C)C(c1ccc(Cl)cc1)=N[C@@H](CC(=O)OC(C)(C)C)c1nnc(C)n1-2` . Reported pEC50?
[out] < 5.00

Values were extracted from paper PMC3979416.
